Tested on: Staphylococcus aureus
test.summary: Antibiofilm activity against methicillin-resistant Staphylococcus aureus assessed as inhibition of biofilm formation by measuring residual biofilm growth incubated for overnight at 10-fold dilution by crystal violet staining based microtiter plate assay relative to control
Assay type: functional
Non-standard residues stand in square brackets, D forms with d. Residues, ends and D or L forms follow the SMILES beside them. Agb = N=C(N)NCC[C@H](N)C(=O)O; Agp = N=C(N)NC[C@H](N)C(=O)O; Orn = NCCC[C@H](N)C(=O)O; Dab = NCC[C@H](N)C(=O)O
measurement.name: residual biofilm growth (% of control) (%)

compound="CC[C@H](C)[C@H](NC(=O)[C@H](CCCNC(=N)N)NC(=O)[C@@H](NC(=O)[C@H](C)NC(=O)[C@@H](NC(=O)[C@@H](NC(=O)[C@H](CC(C)C)NC(=O)[C@H](CCCNC(=N)N)NC(=O)[C@@H](N)C(C)C)[C@@H](C)CC)C(C)C)C(C)C)C(=O)N[C@@H](Cc1c[nH]c2ccccc12)C(=O)N[C@@H](CCCNC(=N)N)C(=O)N[C@@H](CCNC(=N)N)C(N)=O (H-VRLIVAVRIWR[Agb]-NH2)" value_units=% assay_result=39.9
compound="CC[C@H](C)[C@H](NC(=O)[C@H](CCCNC(=N)N)NC(=O)[C@@H](NC(=O)[C@H](C)NC(=O)[C@@H](NC(=O)[C@@H](NC(=O)[C@H](CC(C)C)NC(=O)[C@H](CCCNC(=N)N)NC(=O)[C@@H](N)CCN)[C@@H](C)CC)C(C)C)C(C)C)C(=O)N[C@@H](Cc1c[nH]c2ccccc12)C(=O)N[C@@H](CCCNC(=N)N)C(=O)N[C@@H](CCCNC(=N)N)C(N)=O (H-[Dab]RLIVAVRIWRR-NH2)" value_units=% assay_result=14.2
compound="CC[C@H](C)[C@H](NC(=O)[C@H](CCCNC(=N)N)NC(=O)[C@@H](NC(=O)[C@H](C)NC(=O)[C@@H](NC(=O)[C@H](CCNC(=N)N)NC(=O)[C@H](CC(C)C)NC(=O)[C@H](CCCNC(=N)N)NC(=O)[C@@H](N)C(C)C)C(C)C)C(C)C)C(=O)N[C@@H](Cc1c[nH]c2ccccc12)C(=O)N[C@@H](CCCNC(=N)N)C(=O)N[C@@H](CCCNC(=N)N)C(N)=O (H-VRL[Agb]VAVRIWRR-NH2)" value_units=% assay_result=98.5
compound="CC[C@H](C)[C@H](NC(=O)[C@H](CCCNC(=N)N)NC(=O)[C@@H](NC(=O)[C@H](C)NC(=O)[C@@H](NC(=O)[C@@H](NC(=O)[C@H](CC(C)C)NC(=O)[C@H](CCCNC(=N)N)NC(=O)[C@@H](N)C(C)C)[C@@H](C)CC)C(C)C)C(C)C)C(=O)N[C@@H](CCNC(=N)N)C(=O)N[C@@H](CCCNC(=N)N)C(=O)N[C@@H](CCCNC(=N)N)C(N)=O (H-VRLIVAVRI[Agb]RR-NH2)" value_units=% assay_result=103.7
compound="CC[C@H](C)[C@H](NC(=O)[C@H](CCCNC(=N)N)NC(=O)[C@@H](NC(=O)[C@H](C)NC(=O)[C@@H](NC(=O)[C@@H](NC(=O)[C@H](CC(C)C)NC(=O)[C@H](CCCNC(=N)N)NC(=O)[C@@H](N)C(C)C)[C@@H](C)CC)C(C)C)C(C)C)C(=O)N[C@@H](CCCN)C(=O)N[C@@H](CCCNC(=N)N)C(=O)N[C@@H](CCCNC(=N)N)C(N)=O (H-VRLIVAVRI[Orn]RR-NH2)" value_units=% assay_result=39.3
compound="CC[C@H](C)[C@H](NC(=O)[C@H](CCCNC(=N)N)NC(=O)[C@@H](NC(=O)[C@H](C)NC(=O)[C@@H](NC(=O)[C@H](CNC(=N)N)NC(=O)[C@H](CC(C)C)NC(=O)[C@H](CCCNC(=N)N)NC(=O)[C@@H](N)C(C)C)C(C)C)C(C)C)C(=O)N[C@@H](Cc1c[nH]c2ccccc12)C(=O)N[C@@H](CCCNC(=N)N)C(=O)N[C@@H](CCCNC(=N)N)C(N)=O (H-VRL[Agp]VAVRIWRR-NH2)" value_units=% assay_result=104.1
